System: Proteus vulgaris
experimental_protocol: Antibacterial activity against Proteus vulgaris MTCC 1771 after 24 hr by agar disk diffusion test; further: test concentration or dose not given here
Assay type: functional
I'd be grateful if you could share measured inhibition zone (IZ) for these entries.
State just the number; it will be interpreted in mm.

Q) Write down inhibition zone (IZ) measured for item O=c1oc2ccccc2cc1-c1nnc(Sc2nc(Oc3cccc4cccnc34)nc(N3CCN(c4cccc(Cl)c4Cl)CC3)n2)o1
A) 17

Q) Write down inhibition zone (IZ) measured for item CN1CCN(c2nc(Oc3cccc4cccnc34)nc(Sc3nnc(-c4cc5ccccc5oc4=O)o3)n2)CC1
A) 11

Q) Write down inhibition zone (IZ) measured for item O=c1oc2ccccc2cc1-c1nnc(Sc2nc(Oc3cccc4cccnc34)nc(N3CCN(C(c4ccccc4)c4ccc(Cl)cc4)CC3)n2)o1 (stereo not given)
A) 20

----------
I'd be grateful if you could share measured MIC for these entries.
Test system: Bacillus cereus
experimental_protocol: Antibacterial activity against Bacillus cereus MTCC 619 after 24 hr
Type: functional
condition_description: MTCC 619, 24 h
State just the number; it will be interpreted in µg/mL.

Q) Write down MIC measured for item O=c1oc2ccccc2cc1-c1nnc(Sc2nc(Oc3cccc4cccnc34)nc(N3CCN(c4cccc(Cl)c4)CC3)n2)o1
A) 100

Q) Write down MIC measured for item CCN1CCN(c2nc(Oc3cccc4cccnc34)nc(Sc3nnc(-c4cc5ccccc5oc4=O)o3)n2)CC1
A) 100

Q) Write down MIC measured for item O=c1oc2ccccc2cc1-c1nnc(Sc2nc(Oc3cccc4cccnc34)nc(N3CCN(c4ccccn4)CC3)n2)o1
A) 50

Q) Write down MIC measured for item O=c1oc2ccccc2cc1-c1nnc(Sc2nc(Oc3cccc4cccnc34)nc(N3CCN(c4ccccc4)CC3)n2)o1
A) 100

Q) Write down MIC measured for item O=c1oc2ccccc2cc1-c1nnc(Sc2nc(Oc3cccc4cccnc34)nc(N3CCCCC3)n2)o1
A) 100

Q) Write down MIC measured for item O=c1oc2ccccc2cc1-c1nnc(Sc2nc(Oc3cccc4cccnc34)nc(N3CCN(c4ncccn4)CC3)n2)o1
A) 25

Q) Write down MIC measured for item O=c1oc2ccccc2cc1-c1nnc(Sc2nc(Oc3cccc4cccnc34)nc(N3CCN(Cc4ccccc4)CC3)n2)o1
A) 100

Q) Write down MIC measured for item COc1ccc(CN2CCN(c3nc(Oc4cccc5cccnc45)nc(Sc4nnc(-c5cc6ccccc6oc5=O)o4)n3)CC2)c(OC)c1OC
A) 12.5

----------
Tested on: Escherichia coli
experimental_protocol: Antibacterial activity against Escherichia coli MTCC 739 after 24 hr by agar disk diffusion test
Format: functional
I'd be grateful if you could share measured inhibition zone (IZ) for these entries.
State just the number; it will be interpreted in mm.

Q) Write down inhibition zone (IZ) measured for item O=c1oc2ccccc2cc1-c1nnc(Sc2nc(Oc3cccc4cccnc34)nc(N3CCN(c4cccc(Cl)c4)CC3)n2)o1
A) 25

Q) Write down inhibition zone (IZ) measured for item O=c1oc2ccccc2cc1-c1nnc(Sc2nc(Oc3cccc4cccnc34)nc(N3CCN(Cc4ccccc4)CC3)n2)o1
A) 16

Q) Write down inhibition zone (IZ) measured for item O=c1oc2ccccc2cc1-c1nnc(Sc2nc(Oc3cccc4cccnc34)nc(N3CCN(c4cccc(Cl)c4Cl)CC3)n2)o1
A) 24

Q) Write down inhibition zone (IZ) measured for item O=c1oc2ccccc2cc1-c1nnc(Sc2nc(Oc3cccc4cccnc34)nc(N3CCN(c4ccccc4F)CC3)n2)o1
A) 23
